src = the supplement of paper PMC10567573

B1: ANKRD17 (parent)
chain: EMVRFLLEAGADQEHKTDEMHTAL

variants of: B1; assay: protein stability index of a GFP-peptide fusion (GPS, HEK-293T) (PSI 1-6); higher = more stable; details: c terminus: a fixed tail appended;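 also: lentivirally expressed fusions sorted by FACS into six bins by GFP to DsRed ratio, PSI derived from sequencing read proportions per bin multiplied by bin number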
Label Y when protein stability index is at or above 2; anything below gets N.

INSERT INTO measurements (record_sequence, assigned_label) VALUES
  ('IMVRFLLEAGADQEHKTDEMHTAL [E1I]', 'N'),
  ('EMVRFLLEAGADQEHKTDEMHTNL [A23N]', 'Y'),
  ('EMVRFLLHAGADQEHKTDEMHTAL [E8H]', 'Y'),
  ('EMVRFLLEAGKDQEHKTDEMHTAL [A11K]', 'Y'),
  ('EMVMFLLEAGADQEHKTDEMHTAL [R4M]', 'Y'),
  ('EMVRFLLEDGADQEHKTDEMHTAL [A9D]', 'Y');
